System: 422866-222-R5-J1-PDC complex spheroid viability
TEST SUMMARY: Anticancer human tumor 422866-222-R5-J1-PDC patient-derived pancreatic adenocarcinoma cell line growth inhibition [POLQ]
SETTINGS: second compound 0.0316 µM; first compound 0.316 µM; stronger effect = lower value
Recorded viability, T/C for the following compounds
State the answer as a number, implicitly in %.

Below, 5 compounds whose answers are already recorded.
>>> result_number("CCc1c2c(nc3ccc(O)cc13)-c1cc3c(c(=O)n1C2)COC(=O)[C@]3(O)CC + COC1C(OC(N)=O)C(O)C(Oc2ccc3c(O)c(NC(=O)c4ccc(O)c(CC=C(C)C)c4)c(=O)oc3c2C)OC1(C)C")
28.7
>>> result_number("COc1cccc2c1C(=O)c1c(O)c3c(c(O)c1C2=O)CC(O)(C(=O)CO)CC3OC1CC(N)C(O)C(C)O1 (stereo unspecified) + Nc1ccc(C#CCN(C(=O)Cc2ncc(C(F)(F)F)cc2C(F)(F)F)c2ccc(F)cc2)nn1")
32.5
>>> result_number("COc1cccc(OCCCN)c1-c1cc(Nc2cnc(C#N)cn2)n[nH]1 + Nc1ccc(C#CCN(C(=O)Cc2ncc(C(F)(F)F)cc2C(F)(F)F)c2ccc(F)cc2)nn1")
35.9
>>> result_number("C#Cc1c(F)ccc2cc(O)cc(-c3ncc4c(N5CC6CCC(C5)N6)nc(OCC56CCCN5CC(F)C6)nc4c3F)c12 (stereo unspecified) + Cc1cccc(N(C)C(=O)C2C(O)CCN2c2nc(C)cc(C(F)(F)F)c2C#N)c1")
65.2
>>> result_number("C#Cc1c(F)ccc2cc(O)cc(-c3ncc4c(N5CC6CCC(C5)N6)nc(OCC56CCCN5CC(F)C6)nc4c3F)c12 (stereo unspecified) + COC1C(OC(N)=O)C(O)C(Oc2ccc3c(O)c(NC(=O)c4ccc(O)c(CC=C(C)C)c4)c(=O)oc3c2C)OC1(C)C")
59.6

query: Determine from records and report viability, T/C for COc1cc(C2c3cc4c(cc3C(OC3OC5COC(C)OC5C(O)C3O)C3COC(=O)C23)OCO4)cc(OC)c1O (stereo unspecified) + Cc1cccc(N(C)C(=O)C2C(O)CCN2c2nc(C)cc(C(F)(F)F)c2C#N)c1
result: 69

query: Determine from records and report viability, T/C for CCCS(=O)(=O)Nc1ccc(F)c(C(=O)c2c[nH]c3ncc(-c4ccc(Cl)cc4)cc23)c1F + Nc1ccc(C#CCN(C(=O)Cc2ncc(C(F)(F)F)cc2C(F)(F)F)c2ccc(F)cc2)nn1
result: 107

query: Determine from records and report viability, T/C for CCc1cc2c(N3CCc4c(cc(Cn5ccnc5)cc4-c4cn(C)nc4C(F)(F)F)C3=O)cc(C)nc2c(OC)n1 + Nc1ccc(C#CCN(C(=O)Cc2ncc(C(F)(F)F)cc2C(F)(F)F)c2ccc(F)cc2)nn1
result: 96

query: Determine from records and report viability, T/C for CCc1cc2c(N3CCc4c(cc(Cn5ccnc5)cc4-c4cn(C)nc4C(F)(F)F)C3=O)cc(C)nc2c(OC)n1 + COC1C(OC(N)=O)C(O)C(Oc2ccc3c(O)c(NC(=O)c4ccc(O)c(CC=C(C)C)c4)c(=O)oc3c2C)OC1(C)C
result: 92.4

query: Determine from records and report viability, T/C for CC1COCCN1c1cc(-c2ccnn2C)c2ccnc(-c3ccn[nH]3)c2n1 (stereo unspecified) + COC1C(OC(N)=O)C(O)C(Oc2ccc3c(O)c(NC(=O)c4ccc(O)c(CC=C(C)C)c4)c(=O)oc3c2C)OC1(C)C
result: 42.2

query: Determine from records and report viability, T/C for COc1cccc2c1C(=O)c1c(O)c3c(c(O)c1C2=O)CC(O)(C(=O)CO)CC3OC1CC(N)C(O)C(C)O1 (stereo unspecified) + COC1C(OC(N)=O)C(O)C(Oc2ccc3c(O)c(NC(=O)c4ccc(O)c(CC=C(C)C)c4)c(=O)oc3c2C)OC1(C)C
result: 39.3

----------
System: 422866-222-R5-J1-PDC complex spheroid viability
TEST SUMMARY: Anticancer human tumor 422866-222-R5-J1-PDC cell line growth inhibition [POLQ];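 note: spheroids exposed to compounds for one week before readout; percent of DMSO vehicle wells luminescence so 100% = untreated viability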
SETTINGS: second compound 3.16 µM; first compound 3.16 µM; stronger effect = lower value
Recorded viability, T/C for the following molecules
State the answer as a number, implicitly in %.

Below, 3 molecules whose answers are already recorded.
>>> result_number("O=c1[nH]cc(F)c(=O)[nH]1 + Cc1cccc(N(C)C(=O)C2C(O)CCN2c2nc(C)cc(C(F)(F)F)c2C#N)c1")
83.8
>>> result_number("O=c1[nH]cc(F)c(=O)[nH]1 + COC1C(OC(N)=O)C(O)C(Oc2ccc3c(O)c(NC(=O)c4ccc(O)c(CC=C(C)C)c4)c(=O)oc3c2C)OC1(C)C")
81.8
>>> result_number("CCc1cc2c(N3CCc4c(cc(Cn5ccnc5)cc4-c4cn(C)nc4C(F)(F)F)C3=O)ccnc2c(OC)n1 + COC1C(OC(N)=O)C(O)C(Oc2ccc3c(O)c(NC(=O)c4ccc(O)c(CC=C(C)C)c4)c(=O)oc3c2C)OC1(C)C")
105

query: Determine from records and report viability, T/C for COc1cccc2c1C(=O)c1c(O)c3c(c(O)c1C2=O)CC(O)(C(=O)CO)CC3OC1CC(N)C(O)C(C)O1 (stereo not given) + COC1C(OC(N)=O)C(O)C(Oc2ccc3c(O)c(NC(=O)c4ccc(O)c(CC=C(C)C)c4)c(=O)oc3c2C)OC1(C)C
result: 25.6

query: Determine from records and report viability, T/C for C#Cc1c(F)ccc2cc(O)cc(-c3ncc4c(N5CC6CCC(C5)N6)nc(OCC56CCCN5CC(F)C6)nc4c3F)c12 (stereo not given) + COC1C(OC(N)=O)C(O)C(Oc2ccc3c(O)c(NC(=O)c4ccc(O)c(CC=C(C)C)c4)c(=O)oc3c2C)OC1(C)C
result: 36.9

----------
Test system: 422866-222-R5-J1-PDC complex spheroid viability
TEST SUMMARY: Anticancer human tumor 422866-222-R5-J1-PDC cell line growth inhibition [POLQ];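 note: spheroids exposed to compounds for one week before readout; percent of DMSO vehicle wells luminescence so 100% = untreated viability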
SETTINGS: second compound 0.0316 µM; first compound 0.001 µM; stronger effect = lower value
REPORTED ENDPOINT: viability, T/C (%)
State the answer as a number, implicitly in %.

Below, 2 compounds whose answers are already recorded.
>>> result_number("Cn1ncnc1[C@H]1c2n[nH]c(=O)c3cc(F)cc(c23)N[C@@H]1c1ccc(F)cc1 + Cc1cccc(N(C)C(=O)C2C(O)CCN2c2nc(C)cc(C(F)(F)F)c2C#N)c1")
97.3
>>> result_number("CC[C@@]1(O)C(=O)OCc2c1cc1n(c2=O)Cc2cc3c(CN(C)C)c(O)ccc3nc2-1 + COC1C(OC(N)=O)C(O)C(Oc2ccc3c(O)c(NC(=O)c4ccc(O)c(CC=C(C)C)c4)c(=O)oc3c2C)OC1(C)C")
92.5

Could you now consider this next compound?
query: Determine from records and report viability, T/C for CC[C@@]1(O)C(=O)OCc2c1cc1n(c2=O)Cc2cc3c(CN(C)C)c(O)ccc3nc2-1 + Nc1ccc(C#CCN(C(=O)Cc2ncc(C(F)(F)F)cc2C(F)(F)F)c2ccc(F)cc2)nn1
result: 109

----------
Test system: 422866-222-R5-J1-PDC complex spheroid viability
TEST SUMMARY: Anticancer human tumor 422866-222-R5-J1-PDC cell line growth inhibition [POLQ];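 note: spheroids exposed to compounds for one week before readout; percent of DMSO vehicle wells luminescence so 100% = untreated viability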
SETTINGS: second compound 10 µM; first compound 0.1 µM; stronger effect = lower value
Protocol: Multicellular complex tumor spheroid response to Polymerase (POL) inhibitors (novobiocin, ART-558, RP6685) in combination with a variety of drugs and investigational agents in selected tumor cell lines The POL inhibitors (novobiocin, ART-558, and RP6685) were evaluated both individually and in combination with standard of care and investigational anticancer small molecules within a complex spheroid model of solid tumors. . […]
REPORTED ENDPOINT: viability, T/C

>>> result("COc1cccc2c1C(=O)c1c(O)c3c(c(O)c1C2=O)CC(O)(C(=O)CO)CC3OC1CC(N)C(O)C(C)O1 (stereo not given) + Nc1ccc(C#CCN(C(=O)Cc2ncc(C(F)(F)F)cc2C(F)(F)F)c2ccc(F)cc2)nn1")
"55.5%"
>>> result("CCc1c2c(nc3ccc(O)cc13)-c1cc3c(c(=O)n1C2)COC(=O)[C@]3(O)CC + Cc1cccc(N(C)C(=O)C2C(O)CCN2c2nc(C)cc(C(F)(F)F)c2C#N)c1")
"38%"
>>> result("CC(C)n1c(=O)n(C)c2cnc3cc(F)c(-c4ccc(OCCCN5CCCCC5)nc4)cc3c21 + Cc1cccc(N(C)C(=O)C2C(O)CCN2c2nc(C)cc(C(F)(F)F)c2C#N)c1")
"90.5%"

query: Determine from records and report viability, T/C for CC1COCCN1c1cc(C2(O)CC3CCC(C2)O3)c2cnn(-c3ccn[nH]3)c2n1 (stereo not given) + Nc1ccc(C#CCN(C(=O)Cc2ncc(C(F)(F)F)cc2C(F)(F)F)c2ccc(F)cc2)nn1
result: 41.5%

query: Determine from records and report viability, T/C for CC1COCCN1c1cc(-c2ccnn2C)c2ccnc(-c3ccn[nH]3)c2n1 (stereo not given) + Nc1ccc(C#CCN(C(=O)Cc2ncc(C(F)(F)F)cc2C(F)(F)F)c2ccc(F)cc2)nn1
result: 41.1%

Values compiled from PubChem BioAssay AID1963844.
